Source listed as ChEMBL document CHEMBL1949531.

# Tested on: Influenza A virus
# test-description: Antiviral activity against Influenza A virus (A/Vietnam/1194/2004(H5N1)) infected in MDCK cells assessed as inhibition of viral replication by plaque reduction assay
# Assay type: functional, organism-based
pIC50: −log10 of the molar value.
Give condition met when the value for pIC50 is at least 5. Give condition not met when it is less.

smiles-record	qualitative-label
Cc1cc2c(c(O)c1-c1c(C)cc3c(c1O)/C(=C/N[C@@H](C)C(=O)[O-])C(=O)C(O)=C3C(C)C)/C(=C/N[C@@H](C)C(=O)[O-])C(=O)C(O)=C2C(C)C.[Na+].[Na+]	condition met
Cc1cc2c(c(O)c1-c1c(C)cc3c(c1O)/C(=C/NCCCCCC(=O)[O-])C(=O)C(O)=C3C(C)C)/C(=C/NCCCCCC(=O)[O-])C(=O)C(O)=C2C(C)C.[Na+].[Na+]	condition not met
CC[C@H](C)[C@H](N/C=C1\C(=O)C(O)=C(C(C)C)c2cc(C)c(-c3c(C)cc4c(c3O)/C(=C/N[C@H](C(=O)[O-])[C@@H](C)CC)C(=O)C(O)=C4C(C)C)c(O)c21)C(=O)[O-].[Na+].[Na+]	condition met
Cc1cc2c(c(O)c1-c1c(C)cc3c(c1O)/C(=C/N[C@@H](Cc1c[nH]c4ccccc14)C(=O)[O-])C(=O)C(O)=C3C(C)C)/C(=C/N[C@@H](Cc1c[nH]c3ccccc13)C(=O)[O-])C(=O)C(O)=C2C(C)C.[Na+].[Na+]	condition met
Cc1cc2c(c(O)c1-c1c(C)cc3c(c1O)/C(=C/N[C@@H](CS)C(=O)[O-])C(=O)C(O)=C3C(C)C)/C(=C/N[C@@H](CS)C(=O)[O-])C(=O)C(O)=C2C(C)C.[Na+].[Na+]	condition not met
COC(=O)[C@H](C)N/C=C1\C(=O)C(O)=C(C(C)C)c2cc(C)c(-c3c(C)cc4c(c3O)/C(=C/N[C@@H](C)C(=O)OC)C(=O)C(O)=C4C(C)C)c(O)c21	condition met
Cc1cc2c(c(O)c1-c1c(C)cc3c(c1O)/C(=C/N[C@@H](CO)C(=O)[O-])C(=O)C(O)=C3C(C)C)/C(=C/N[C@@H](CO)C(=O)[O-])C(=O)C(O)=C2C(C)C.[Na+].[Na+]	condition not met
NC12CC3CC(CC(C3)C1)C2	condition met
Cc1cc2c(c(O)c1-c1c(C)cc3c(c1O)/C(=C/N[C@@H](Cc1c[nH]cn1)C(=O)[O-])C(=O)C(O)=C3C(C)C)/C(=C/N[C@@H](Cc1c[nH]cn1)C(=O)[O-])C(=O)C(O)=C2C(C)C.[Na+].[Na+]	condition not met
Cc1cc2c(c(O)c1-c1c(C)cc3c(c1O)/C(=C/N[C@@H](Cc1ccc(O)cc1)C(=O)[O-])C(=O)C(O)=C3C(C)C)/C(=C/N[C@@H](Cc1ccc(O)cc1)C(=O)[O-])C(=O)C(O)=C2C(C)C.[Na+].[Na+]	condition not met
Cc1cc2c(c(O)c1-c1c(C)cc3c(c1O)/C(=C/NCCCCCCCC(=O)[O-])C(=O)C(O)=C3C(C)C)/C(=C/NCCCCCCCC(=O)[O-])C(=O)C(O)=C2C(C)C.[Na+].[Na+]	condition not met
Cc1cc2c(c(O)c1-c1c(C)cc3c(c1O)/C(=C/NCCCCC(=O)[O-])C(=O)C(O)=C3C(C)C)/C(=C/NCCCCC(=O)[O-])C(=O)C(O)=C2C(C)C.[Na+].[Na+]	condition not met
